Test summary: growth suppression of PTEN-deleted HCT116, pilot screen, cell-based, HCT116 clonal line, CellTiter-Glo (AID 824);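 note: 0% = 20 µM Hyamine control and 100% = vehicle cell control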
Experimental context: 60 h, at 10 µM, active compounds read low
Records with an inconclusive call do not appear.
Measurement type: viability (%)
# unit: % | format: bare number

Given CN(CC(=O)NC1CCCCCCC1)S(=O)(=O)c1cccc2cccnc12 , respond with its viability.
87.1

Given CCN1C(=O)c2ccccc2Sc2ccc(C(=O)NCCN3CCOCC3)cc21 , respond with its viability.
101

Given Cc1ccc(N)c(C(O)(C(F)(F)F)C(F)(F)F)c1 , respond with its viability.
99.6

Given O=C(CCS(=O)(=O)c1cccc2nonc12)N1CCCc2ccccc21 , respond with its viability.
92.9

Given CCOC(=O)C1=C(SCC(=O)Nc2ccccc2)NC(=O)C(C#N)C12CCCCC2 (stereo unspecified) , respond with its viability.
91.5

Given COC(=O)C(C(=O)OC)=C(/C=C/N(C)C)N(C)C , respond with its viability.
101

Given CCSCCOC(=O)C1=C(C)N(C)C(=O)NC1c1cc(OC)ccc1OC (stereo unspecified) , respond with its viability.
93.8

Given COc1ccc(-c2nnc(SCC(=O)NC(C)c3ccccc3)o2)cc1OC (stereo unspecified) , respond with its viability.
96

Given Cc1ccccc1-n1c(Cn2c(=O)sc3ccccc32)nnc1SCC(=O)N1CCOCC1 , respond with its viability.
100

Given COc1ccc(-n2ncc3c(N(C)C4CCCCC4)ncnc32)cc1 , respond with its viability.
77.9

Given O=C(Cc1cc(=O)[nH]c(=O)[nH]1)NCCN1CCOCC1 , respond with its viability.
98.6
